The values you see were collected from patent US20250320193A1.

Test system: MM.1R cells (dexamethasone-resistant human multiple myeloma cells)
ASSAY_SUMMARY: Tumor cell proliferation inhibition, CCK-8
Type: cell-based
SETUP_CONDITIONS: MM.1R cells, CCK-8, read-out: inhibitory activity (IC50, nM) MM.1R
ENDPOINT_NAME: IC50

1) O=C1CCC(N2Cc3cc(CN4CCN(C(c5ccc(F)cc5)c5ccc(F)cc5)CC4)ccc3C2=O)C(=O)N1 (stereo not drawn) : 1 to 10 nM
2) O=C1CCC(N2Cc3cc(CN4C5CCC4CN(C(c4ccccc4)c4ccccc4)C5)c(F)cc3C2=O)C(=O)N1 (stereo not drawn) : 10 to 50 nM

Query: Request: IC50, test system MM.1R cells (dexamethasone-resistant human multiple myeloma cells), entry O=C1CCC(N2Cc3cc(CN4CCN([C@@H](c5ccccc5)c5ccccn5)CC4)ccc3C2=O)C(=O)N1 (stereo partly drawn)
Reply: 10 to 50 nM

Query: Request: IC50, test system MM.1R cells (dexamethasone-resistant human multiple myeloma cells), entry O=C1CCC(N2Cc3c(ccc(CN4C[C@@H]5C[C@H]4CN5C(c4ccccc4)c4ccccc4)c3F)C2=O)C(=O)N1 (stereo partly drawn)
Reply: 10 to 50 nM

Query: Request: IC50, test system MM.1R cells (dexamethasone-resistant human multiple myeloma cells), entry O=C1CCC(N2Cc3cc(CN4CCN(C(c5ccccc5)c5ccccc5)CC4)c(F)cc3C2=O)C(=O)N1 (stereo not drawn)
Reply: 1 to 10 nM

Query: Request: IC50, test system MM.1R cells (dexamethasone-resistant human multiple myeloma cells), entry O=C1CCC(N2Cc3cc(CN4CCN([C@H](c5ccccc5)c5ccccn5)CC4)ccc3C2=O)C(=O)N1 (stereo partly drawn)
Reply: 1 to 10 nM

Query: Request: IC50, test system MM.1R cells (dexamethasone-resistant human multiple myeloma cells), entry Nc1cccc2c1C(=O)N(C1CCC(=O)NC1=O)C2=O (stereo not drawn) [pomalidomide, reference compound]
Reply: > 10000 nM

Query: Request: IC50, test system MM.1R cells (dexamethasone-resistant human multiple myeloma cells), entry O=C1CCC(N2Cc3cc(CN4C5CCC4CN(C(c4ccccc4)c4ccccc4)C5)ccc3C2=O)C(=O)N1 (stereo not drawn)
Reply: 500 to 1000 nM

Query: Request: IC50, test system MM.1R cells (dexamethasone-resistant human multiple myeloma cells), entry O=C1CCC(N2Cc3cc(CN4CCN(C(c5ccc(F)cc5)c5ccc(F)cc5)CC4)c(F)cc3C2=O)C(=O)N1 (stereo not drawn)
Reply: 1 to 10 nM

Query: Request: IC50, test system MM.1R cells (dexamethasone-resistant human multiple myeloma cells), entry O=C1CCC(N2Cc3c(ccc(CN4CCN(C(c5ccc(F)cc5)c5ccc(F)cc5)CC4)c3F)C2=O)C(=O)N1 (stereo not drawn)
Reply: 10 to 50 nM

Query: Request: IC50, test system MM.1R cells (dexamethasone-resistant human multiple myeloma cells), entry O=C1CCC(N2Cc3c(ccc(CN4CCN(C(c5ccccc5)c5ccccc5)CC4)c3F)C2=O)C(=O)N1 (stereo not drawn)
Reply: 1 to 10 nM

Query: Request: IC50, test system MM.1R cells (dexamethasone-resistant human multiple myeloma cells), entry O=C1CCC(N2Cc3cc(CN4CCN(C(c5cccc(F)c5)c5cccc(F)c5)CC4)cc(F)c3C2=O)C(=O)N1 (stereo not drawn)
Reply: 10 to 50 nM

Query: Request: IC50, test system MM.1R cells (dexamethasone-resistant human multiple myeloma cells), entry O=C1CCC(N2Cc3cc(CN4CCN(C(c5ccccc5)c5ccccn5)CC4)ccc3C2=O)C(=O)N1 (stereo not drawn)
Reply: 1 to 10 nM

Query: Request: IC50, test system MM.1R cells (dexamethasone-resistant human multiple myeloma cells), entry O=C1CCC(N2Cc3cc(CN4CCN(C(c5cccc(F)c5)c5cccc(F)c5)CC4)c(F)cc3C2=O)C(=O)N1 (stereo not drawn)
Reply: 1 to 10 nM

Query: Request: IC50, test system MM.1R cells (dexamethasone-resistant human multiple myeloma cells), entry O=C1CCC(N2Cc3cc(CN4CCN(C(c5ccc(Cl)cc5)c5ccc(Cl)cc5)CC4)c(F)cc3C2=O)C(=O)N1 (stereo not drawn)
Reply: 50 to 100 nM
